Each recorded value in this set is attributed to patent US20250027068.

# assayedTarget: pooled human IgG
property: Enzyme Activity Endpoint Assay (purified): Fc (ng/µL)
The response must be a number in ng/µL with no trailing unit.

State the recorded Enzyme Activity Endpoint Assay (purified): Fc for this entry: PRT-608 (protein) MQITSVWTKGVTPLTPEQFRYNNEDVIHAPYLAHQGWYDITKAFDGKDNLLCGAATAGNMLHWWFDQNKTEIEAYLSKHPEKQKIIFNNQELFDLKAAIDTKDSQTNSQLFNYFRDKAFPNLSARQLGVMPDLVLDMFINGYYLNVFKTQSTDVNRPYQDKDKRGGIFDAVFTRGDQTTLLTARHDLKNKGLNDISTIIKQELTEGRALALSHTYANVSISHVINLWGADFNAEGNLEAIYVTDSDADEKIGMKKYFVGINAHGHVAISAKKIEGENIGAQVLGLFTLSSGKDIWQKLSLEHHHHHH
484

In the following, a different protein is considered.
Sample PRT-164 (protein) MANQEIRYSEVTPYHVTSVWTKGVTPPANFTQGEDVFHAPYVANQGWYDITKTFNGKDDLLCGAATAGNMLHWWFDQNKDQIKRYLEEHPEKQKINFNGEQMFDVKEAIDTKNSQENSELFNYFKEKAFPYLSTKHLGVFPDHVIDMFINGYRLSLTNHGPTPVKEGSKDPRGGIFDAVFTRGDQSKLLTSRHDFKEKNLKEISDLIKKELTEGKALGLSHTYANVRINHVINLWGADFDSNGNLKAIYVTDSDSNASIGMKKYFVGVNSAGKVAISAKEIKEDNIGAQVLGLFTLSTGQDSWNQTN — what was its Enzyme Activity Endpoint Assay (purified): Fc?
203
